Target: T1, NrdR R17A (Streptomyces coelicolor M145, UniProt O69980 1-182, R17A)
T1 sequence: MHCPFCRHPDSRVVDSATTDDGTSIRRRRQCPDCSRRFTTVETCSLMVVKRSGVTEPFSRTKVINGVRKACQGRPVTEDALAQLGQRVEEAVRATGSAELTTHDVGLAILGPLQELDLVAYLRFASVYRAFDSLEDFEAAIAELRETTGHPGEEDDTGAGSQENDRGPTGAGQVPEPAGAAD
Test: MST; 1 mM dATP + 1 mM ATP; MST: 25 mM Tris-HCl pH 7.6, 150 mM NaCl, 10 mM MgCl2, 5% glycerol, 1 mM DTT, 0.05% Tween-20, nucleotides 1 mM each, 10 nM Cy5-dsDNA, room temperature
Conditions: protein: recombinant; tags: C-terminal His6 (pET30a); label: 5'-Cy5 on sense strand; blunt

# Binder, binding result
records = [
    ("cydA promoter 57 bp (dsDNA) DNA 1: GTAGGTCATAATTGCTTGTGAATGTGAACGCGTTCACAAGCGTGTCCCGATTGCGCC DNA 2: GGCGCAATCGGGACACGCTTGTGAACGCGTTCACATTCACAAGCAATTATGACCTAC", "no binding"),
    ("nrdRJ C18/C49 (dsDNA) DNA 1: GCCAATCCCCACATCTACTGGTTGGATAGCGTGAGCAGCCCACAAGTTCTGGTCCCC DNA 2: GGGGACCAGAACTTGTGGGCTGCTCACGCTATCCAACCAGTAGATGTGGGGATTGGC", "no binding"),
]
